# STUDY TARGET: PARP-1 F1+F2 (24-kDa DBD) (Homo sapiens, UniProt P09874 1-214)
# Sequence (P09874 1-214): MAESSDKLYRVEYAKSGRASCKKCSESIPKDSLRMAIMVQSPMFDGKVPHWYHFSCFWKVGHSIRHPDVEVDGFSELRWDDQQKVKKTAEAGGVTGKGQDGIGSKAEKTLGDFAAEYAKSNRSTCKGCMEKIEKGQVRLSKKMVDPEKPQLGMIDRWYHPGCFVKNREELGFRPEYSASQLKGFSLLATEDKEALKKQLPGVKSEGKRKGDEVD
# TEST DETAILS: fluorescence anisotropy; 25; 50 mM Tris-HCl pH 7.0, 150 uM ZnSO4, 4 mM DTT, 25 C; NaCl 0-200 mM (T2, as in cof; 10 nM DNA) or 25 mM (T3 mutants; 25 nM DNA)
# RECORDED CONDITIONS: protein: recombinant; label: fluorescein-dT at T8; single-chain dumbbell, 18 bp with central nick, two tetraloops
PARAMETER: Kd (nM)
Unit nM implied. Number only.

## Input Form field: reported Kd of CGGTCGATCGTAAGATCGACCGGCGCTGGAGCTTGCTCCAGCGC (structured_DNA, 5'-phosphate) [44-nt nicked dumbbell, 5'-phosphate, fluorescein-dT]
## Output 20.4
